Test readout: logP

>>> reported_measurement("CC[n+]1ccc(C=CC=Cc2ccc(N(C)C)cc2)cc1.[O-][Cl+3]([O-])([O-])[O-]")
1.04
>>> reported_measurement("CCN(CC)c1ccc2nc3c4ccccc4c(=O)cc-3oc2c1 [Nile Red, 9-diethylamino-5-benzo[α]phenoxazinone]")
3.51

----------
# System: AD NFT
# Test protocol: Staining of neurofibrillary tangles (NFT) in AD temporal lobe sections; note: key: positive (+) staining for both plaques and tangles; did not bind (−) AD pathology
# Format: binding, human
# Condition notes: 5 μM dye in PBS
Test readout: AD NFT Contrast

>>> reported_measurement("CN1C(=CC=CC=CC=CC2=[N+](C)c3ccccc3C2(C)C)C(C)(C)c2ccccc21.[O-][Cl+3]([O-])([O-])[O-]")
"−"
>>> reported_measurement("CCN(CC)c1ccc2nc3c(cc(N)c4ccccc43)[o+]c2c1.[O-][Cl+3]([O-])([O-])[O-]")
"−"
>>> reported_measurement("O=C1NC(=S)NC(=O)C1=C/C=C/C=C/c1c(O)[nH]c(=S)[nH]c1=O")
"−"
>>> reported_measurement("CN(C)c1ccc(C=CC=CC2=[N+](C)c3ccccc3C2(C)C)cc1.[O-][Cl+3]([O-])([O-])[O-]")
"+"
>>> reported_measurement("O=S(=O)([O-])c1ccccc1C=Cc1ccc(-c2ccc(C=Cc3ccccc3S(=O)(=O)[O-])cc2)cc1.[Na+].[Na+]")
"+"
>>> reported_measurement("CC[n+]1ccc(C=CC=Cc2ccc(N(C)C)cc2)cc1.[O-][Cl+3]([O-])([O-])[O-]")
"+ +"
>>> reported_measurement("CCN(CC)c1ccc2nc3c4ccccc4c(=O)cc-3oc2c1 [Nile Red, 9-diethylamino-5-benzo[α]phenoxazinone]")
"−"
>>> reported_measurement("CCN1C(=CC=CC=Cc2sc3ccccc3[n+]2CC)Sc2ccccc21.[I-] [3-3′-DTDCI, 3,3′-diethylthiadicarbocyanine iodide]")
"−"

----------
# Experimental target: Lewy neurites (Homo sapiens, UniProt P37840)
# Construct: Post-mortem midbrain tissue from DLB and PD patients was obtained from the HBTRC Brain Bank at McLean Hospital; tissue HBTRC Brain Bank at McLean Hospital; host or cells: formalin-fixed post-mortem human midbrain (DLB and PD patients)
# Test protocol: Staining of Lewy neurites in post-mortem DLB/PD midbrain tissue; note: key: positive staining with high contrast (++); positive staining with low contrast (+); negative staining (−)
# Format: binding
# Condition notes: DLB/PD post-mortem midbrain tissue; dyes in PBS at 500 nM, 2 μM, 5 μM for 30 minutes
Test readout: Lewy Neurites Contrast

>>> reported_measurement("CC[n+]1ccc(C=CC=Cc2ccc(N(C)C)cc2)cc1.[O-][Cl+3]([O-])([O-])[O-]")
"+"
>>> reported_measurement("O=C1NC(=S)NC(=O)C1=C/C=C/C=C/c1c(O)[nH]c(=S)[nH]c1=O")
"−"
>>> reported_measurement("CCN(CC)c1ccc2nc3c4ccccc4c(=O)cc-3oc2c1 [Nile Red, 9-diethylamino-5-benzo[α]phenoxazinone]")
"−"
>>> reported_measurement("CCN(CC)c1ccc2nc3c(cc(N)c4ccccc43)[o+]c2c1.[O-][Cl+3]([O-])([O-])[O-]")
"−"
>>> reported_measurement("O=S(=O)([O-])c1ccccc1C=Cc1ccc(-c2ccc(C=Cc3ccccc3S(=O)(=O)[O-])cc2)cc1.[Na+].[Na+]")
"+"
>>> reported_measurement("CN(C)c1ccc(C=CC=CC2=[N+](C)c3ccccc3C2(C)C)cc1.[O-][Cl+3]([O-])([O-])[O-]")
"−"
>>> reported_measurement("CN1C(=CC=CC=CC=CC2=[N+](C)c3ccccc3C2(C)C)C(C)(C)c2ccccc21.[O-][Cl+3]([O-])([O-])[O-]")
"−"
>>> reported_measurement("CCN1C(=CC=CC=Cc2sc3ccccc3[n+]2CC)Sc2ccccc21.[I-] [3-3′-DTDCI, 3,3′-diethylthiadicarbocyanine iodide]")
"−"
